These data points were gathered from patent US20170362301A1.

target: EGFR (form in the assay not stated) (human, UniProt P00533 25-645, limits assumed); experiment: ELISA, NEM conjugate 10 nM
binding ratio vs parent P54AR4-83v2 below 0.9 ratio gives false (0); binding ratio vs parent P54AR4-83v2 at or above it gives true (1).

- binder: "P54AR4-83v2 G73C, NEM conjugate (designed binder, NEM on Cys 73, His-tagged) LPAPKNLVVSEVTEDSARLSWDDPWAFYESFLIQYQESEKVGEAIVLTVPGSERSYDLTGLKPGTEYTVSIYCVHNVYKDTNMRGLPLSAIFTT"
  class name: "false (0)"
- binder: "P54AR4-83v2 D15C, NEM conjugate (designed binder, NEM on Cys 15, His-tagged) LPAPKNLVVSEVTECSARLSWDDPWAFYESFLIQYQESEKVGEAIVLTVPGSERSYDLTGLKPGTEYTVSIYGVHNVYKDTNMRGLPLSAIFTT"
  class name: "true (1)"
